Experiment: small-molecule microarray binders of probe aEGFR, primary screen, biochemical, biotinylated probe, 635/667 nm fluorescence (AID 1097);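 also: probe is a biotinylated anti-EGFR antibody binding compounds printed on slides; score combines fluorescence near 667 nm and signal to noise of each spot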
Conditions: higher = more signal
measured_endpoint: composite z-score
Format: numeric value only, no unit, no commentary.

Look over these answered cases.
compound=CCOC(=O)C[C@H]1[C@H](OC(=O)c2ccccc2-c2ccccc2)[C@@H](NC(=O)c2ccc3ccccc3c2)c2cc(OCCCO)ccc2N1C(=O)c1ccc2ccccc2n1 reported_measurement=-0.111
compound=O=C1O[C@H](c2ccccc2)[C@H](c2ccccc2)N2[C@H]1[C@@H](C(=O)NC[C@H](O)c1ccccc1)[C@]1(C(=O)Nc3ccc(C#CCCO)cc31)[C@H]2c1ccc(O)cc1 reported_measurement=-0.194
compound=COc1ccc(C(=O)Nc2cccc(CN3C(=O)[C@@]4(O[C@@H](CCn5cc(CCO)nn5)[C@H]([Si](C)(C)c5ccc(OC)cc5)[C@H]4C)c4ccccc43)c2)cc1 reported_measurement=0.0511
compound=COC(=O)[C@@]1(Cc2ccccc2)[C@H]2c3cc(C(=O)N4CCCC4)n(C)c3C[C@H]2CN1C(=O)c1ccccc1 reported_measurement=0.287
compound=O=C1O[C@@H](c2ccccc2)[C@@H](c2ccccc2)N2[C@@H](c3ccc(OCCO)cc3)[C@]3(C(=O)Nc4ccc(C#CC5=CCCCC5)cc43)[C@@H](C(=O)O)[C@H]12 reported_measurement=0.0061

The value of composite z-score measured for the compound COCCOC(=O)N1C(=O)[C@@]2(c3cc(C#CCC(C(=O)OC)C(=O)OC)ccc31)[C@H](c1ccccc1OCCO)N1[C@H](c3ccccc3)[C@H](c3ccccc3)OC(=O)[C@H]1[C@@H]2C(=O)N1CCc2cc(OC)c(OC)cc2C1 turned out to be 0.0637

The value of composite z-score measured for the compound COC(=O)[C@@]1(Cc2ccc(F)cc2)[C@H]2c3cc(C(=O)N(C)C)n(CCc4ccccn4)c3C[C@H]2CN1C(=O)c1ccccc1 turned out to be 0.709

The value of composite z-score measured for the compound [N-]=[N+]=NCc1ccccc1[C@@H]1OC(c2ccc(OCCCO)cc2)=N[C@]1(Cc1ccccc1)C(=O)N1CCCCC1 turned out to be 0.193

The value of composite z-score measured for the compound COC(=O)[C@@]1(Cc2ccccc2)[C@H]2c3cc(C(=O)N4CCCC4)n(Cc4ccc(C)o4)c3C[C@H]2CN1C(=O)c1ccccc1 turned out to be 0.0226

The value of composite z-score measured for the compound CC(C)CNC(=O)[C@@H]1c2ccccc2C(=O)N(Cc2cc(C(F)(F)F)cc(C(F)(F)F)c2)[C@H]1c1ccc(CO)cc1 turned out to be -0.0682

The value of composite z-score measured for the compound COc1c(C)cc(-c2cc3c(c(-c4ccc(Oc5ccccc5)cc4)n2)[Si](C(C)C)(C(C)C)OC3)cc1C turned out to be -0.0947

The value of composite z-score measured for the compound C[C@H]1NC(=O)[C@H](Cc2ccccc2)NC(=O)[C@@]23C(=O)N[C@@H](Cc4ccccc4)C2[C@H](C)[C@@]2(C)O[C@H]2C3/C=C/C/C=C\CNC1=O (some centres not stated) turned out to be -0.183

###

Molecular target: Neurogenic locus notch homolog protein 3 (Homo sapiens) (UniProt Q9UM47)
Sequence (Q9UM47 whole entry, looked up): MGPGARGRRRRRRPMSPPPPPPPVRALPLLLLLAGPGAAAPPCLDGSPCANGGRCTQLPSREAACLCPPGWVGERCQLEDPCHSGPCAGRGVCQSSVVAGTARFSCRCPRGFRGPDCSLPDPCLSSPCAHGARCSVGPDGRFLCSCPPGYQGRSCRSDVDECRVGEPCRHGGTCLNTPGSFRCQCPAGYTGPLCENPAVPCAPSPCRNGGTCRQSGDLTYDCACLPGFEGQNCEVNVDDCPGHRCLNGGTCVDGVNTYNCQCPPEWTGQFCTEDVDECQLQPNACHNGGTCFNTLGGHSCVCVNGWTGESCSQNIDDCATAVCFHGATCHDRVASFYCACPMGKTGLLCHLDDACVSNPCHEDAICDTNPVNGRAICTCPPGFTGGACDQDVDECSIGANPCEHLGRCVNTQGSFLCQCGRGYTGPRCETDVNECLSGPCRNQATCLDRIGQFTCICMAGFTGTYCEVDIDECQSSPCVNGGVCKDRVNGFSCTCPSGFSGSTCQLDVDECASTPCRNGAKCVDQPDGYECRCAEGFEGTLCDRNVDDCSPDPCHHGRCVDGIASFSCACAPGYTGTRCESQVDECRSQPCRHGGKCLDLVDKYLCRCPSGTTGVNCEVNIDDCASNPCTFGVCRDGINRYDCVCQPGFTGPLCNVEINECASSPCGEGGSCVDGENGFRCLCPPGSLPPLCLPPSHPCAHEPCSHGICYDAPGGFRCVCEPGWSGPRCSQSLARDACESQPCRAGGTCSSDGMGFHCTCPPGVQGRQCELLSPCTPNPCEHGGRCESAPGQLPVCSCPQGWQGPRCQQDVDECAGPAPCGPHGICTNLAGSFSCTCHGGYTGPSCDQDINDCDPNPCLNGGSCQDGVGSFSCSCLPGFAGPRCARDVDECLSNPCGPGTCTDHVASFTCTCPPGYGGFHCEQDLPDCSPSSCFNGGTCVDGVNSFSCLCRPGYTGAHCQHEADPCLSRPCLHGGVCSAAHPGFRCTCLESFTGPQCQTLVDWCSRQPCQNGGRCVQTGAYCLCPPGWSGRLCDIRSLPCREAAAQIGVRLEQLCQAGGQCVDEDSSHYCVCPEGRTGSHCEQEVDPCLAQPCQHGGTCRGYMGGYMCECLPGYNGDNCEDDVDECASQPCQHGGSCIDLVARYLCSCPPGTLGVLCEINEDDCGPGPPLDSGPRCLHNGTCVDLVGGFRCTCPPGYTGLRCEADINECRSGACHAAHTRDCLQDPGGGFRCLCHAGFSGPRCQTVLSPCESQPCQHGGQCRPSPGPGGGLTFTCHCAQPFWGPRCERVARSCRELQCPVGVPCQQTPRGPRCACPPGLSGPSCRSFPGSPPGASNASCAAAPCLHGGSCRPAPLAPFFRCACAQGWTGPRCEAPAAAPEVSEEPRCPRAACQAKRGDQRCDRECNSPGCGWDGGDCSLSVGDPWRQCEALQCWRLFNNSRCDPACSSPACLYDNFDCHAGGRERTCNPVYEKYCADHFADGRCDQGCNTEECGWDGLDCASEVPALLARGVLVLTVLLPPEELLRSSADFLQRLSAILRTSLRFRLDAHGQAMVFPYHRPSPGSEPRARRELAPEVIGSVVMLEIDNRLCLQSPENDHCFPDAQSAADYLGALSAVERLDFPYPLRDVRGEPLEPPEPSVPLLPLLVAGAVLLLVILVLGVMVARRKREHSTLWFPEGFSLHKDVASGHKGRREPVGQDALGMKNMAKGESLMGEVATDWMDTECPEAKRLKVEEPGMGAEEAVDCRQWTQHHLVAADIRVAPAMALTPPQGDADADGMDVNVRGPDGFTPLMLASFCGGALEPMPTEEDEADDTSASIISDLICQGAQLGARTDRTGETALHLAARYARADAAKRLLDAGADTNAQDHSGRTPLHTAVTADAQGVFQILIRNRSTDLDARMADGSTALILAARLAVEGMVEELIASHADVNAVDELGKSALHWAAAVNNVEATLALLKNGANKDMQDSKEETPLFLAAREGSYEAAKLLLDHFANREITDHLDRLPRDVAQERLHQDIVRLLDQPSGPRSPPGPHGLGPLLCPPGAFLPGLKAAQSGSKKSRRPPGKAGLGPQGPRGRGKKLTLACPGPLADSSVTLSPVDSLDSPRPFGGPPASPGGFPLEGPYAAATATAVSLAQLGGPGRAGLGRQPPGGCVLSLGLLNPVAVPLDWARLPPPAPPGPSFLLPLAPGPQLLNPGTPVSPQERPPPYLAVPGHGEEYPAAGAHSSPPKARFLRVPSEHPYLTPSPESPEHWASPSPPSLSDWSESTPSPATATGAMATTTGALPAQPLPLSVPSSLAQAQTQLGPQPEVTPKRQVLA
Assay: NOTCH3 binders on small-molecule microarray, primary screen, biochemical, 635/667 nm fluorescence (AID 1096)
Conditions: NOTCH3 binding, 635 nm fluorescence, higher = more signal
Below, each entry is listed alongside its reported composite z-score.
Format: numeric value only, no unit, no commentary.

Look over these answered cases.
compound=COCC(=C=CC[C@H](O)c1ccc(OCCO)cc1)C[C@H](O)c1cc(Cl)cc(Cl)c1O measured_endpoint="composite z-score" reported_measurement=1.12
compound=O=C1O[C@@H](c2ccccc2)[C@@H](c2ccccc2)N2[C@@H](c3ccc(O)cc3)[C@]3(C(=O)Nc4ccc(C#CC5=CCCCC5)cc43)[C@@H](C(=O)O)[C@H]12 measured_endpoint="composite z-score" reported_measurement=0.925
compound=O=C/C=C/c1ccc2c(c1)OCO2 measured_endpoint="composite z-score" reported_measurement=0.0863
compound="CCOC(=O)C1=CCC(c2ccc(C#N)cc2)N(S(=O)(=O)c2ccc(C)cc2)C1 (configuration not stated)" measured_endpoint="composite z-score" reported_measurement=1.09

The value of composite z-score measured for the compound COC(=O)[C@@]1(Cc2ccccc2)[C@H]2c3cc(C(=O)N(C)C)n(Cc4cc(C)n(C)n4)c3C[C@H]2CN1C(=O)c1ccccc1 turned out to be 0.809

The value of composite z-score measured for the compound CC(C)CNC(=O)[C@@H]1c2ccccc2C(=O)N(Cc2cc(C(F)(F)F)cc(C(F)(F)F)c2)[C@H]1c1ccc(CO)cc1 turned out to be -0.977

The value of composite z-score measured for the compound COc1ccc(C#Cc2ccc3c(c2)[C@]2(C(=O)N3)[C@H](c3ccc(O)cc3)N3[C@H](c4ccccc4)[C@H](c4ccccc4)OC(=O)[C@H]3[C@@H]2C(=O)N2CCCCCCC2)cc1 turned out to be 1.07

###

Assay: binders of probe aFGF10 on microarray, primary screen, stem cell growth factor project, biochemical, small-molecule microarray, fluorescence 635/667 (AID 1071);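 also: score merges 667 nm spot intensity and signal to noise from triplicate slides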
Conditions: higher = more signal
measured_endpoint: composite z-score
Format: numeric value only, no unit, no commentary.

molecule="CC(C)(C)N1CC=CC23O[C@@H]4/C=C\\CCCOC(=O)C4[C@H]2C(=O)N(CCO)[C@@H]3C1=O (some centres undefined)" measured_endpoint="composite z-score" reported_measurement=0.588
molecule=COCCOC(=O)N1C(=O)[C@@]2(c3cc(C#CCCO)ccc31)[C@H](c1ccc(O)cc1)N1[C@H](c3ccccc3)[C@H](c3ccccc3)OC(=O)[C@H]1[C@@H]2C(N)=O measured_endpoint="composite z-score" reported_measurement=0.203
molecule=CN(C)CCCNC(=O)[C@@]1(Cc2ccccc2I)c2ccccc2C(=O)N(Cc2ccccc2C(F)(F)F)[C@H]1c1ccc(CO)cc1 measured_endpoint="composite z-score" reported_measurement=-0.935

Next molecule, please.
The value of composite z-score measured for the molecule CCCCCN1CC=CC23O[C@@H]4/C=C\CCC(C)OC(=O)C4[C@H]2C(=O)N(CCCCCO)[C@@H]3C1=O (some centres undefined) turned out to be -0.524

###

System: Noggin (protein binding on small-molecule microarray)
Experiment: Noggin binders on small-molecule microarray, primary screen, biochemical, 635/667 nm fluorescence (AID 1095);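 also: score merges 667 nm feature fluorescence with signal to noise over triplicate slides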
Conditions: 635 nm fluorescence, higher = more signal
Given measured composite z-score, output 1.0 if it is greater than or equal to 0.3 and 0.0 if not.

compound=CCCCC=C[C@@H](NC(=O)c1ccco1)c1ccccc1 label=0.0

Lookup: Item O=C1OCCC=C[C@H]2OC34C=CCN(Cc5ccccc5)C(=O)[C@H]3N(CCCCCCO)C(=O)[C@@H]4C12 (stereo partly drawn) with composite z-score of 0.3 or above?
Found: 0.0

Lookup: Item C=CCN1C(=O)[C@]2(O[C@H](CCO)[C@@H]([Si](C)(C)c3ccc(OC)cc3)[C@@H]2C)c2cc(NC(=O)[C@H](C)O)ccc21 with composite z-score of 0.3 or above?
Found: 1.0

Lookup: Item COCCCNC(=O)[C@@]1(c2ccc([N+](=O)[O-])cc2)CC(=O)N(CC23CC4CC(CC(C4)C2)C3)[C@@H]1c1ccc(CO)cc1 with composite z-score of 0.3 or above?
Found: 1.0

Lookup: Item O=C1N(CCS(=O)(=O)c2ccccc2)Cc2ccccc2[C@H]2OC(c3ccc(OCCCO)cc3)=N[C@@]12CCS(=O)(=O)c1ccccc1 with composite z-score of 0.3 or above?
Found: 1.0

Lookup: Item C=C[C@H](COC(C)=O)N(Cc1ccc(OC(C)=O)c(OC)c1)S(=O)(=O)c1ccc(Br)cc1 with composite z-score of 0.3 or above?
Found: 1.0

Lookup: Item C=C(COC)/C(=C/C[C@H](OC(=O)c1ccncc1)c1cccc(OCCO)c1)c1cc(C(=O)OC)ccc1OC with composite z-score of 0.3 or above?
Found: 1.0

Lookup: Item COC(=O)[C@@]1(Cc2ccccc2)[C@H]2c3cc(C(=O)N4CCCC4)n(C)c3C[C@H]2CN1C(=O)c1ccccc1 with composite z-score of 0.3 or above?
Found: 0.0

###

Assay: small-molecule microarray binders of probe aLefty2, primary screen, biochemical, biotinylated probe, 635/667 nm fluorescence (AID 1094);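 also: score merges spot fluorescence near 667 nm with spot signal-to-noise ratio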
Conditions: higher = more signal
measured_endpoint: composite z-score

compound="C=CCC(OC(C)=O)[C@@H]1[C@@H](N(Cc2ccc(-c3cccc(C(F)(F)F)c3)o2)C(=O)c2ccc(C)cc2)c2cc(OCCCO)ccc2N1C(=O)c1ccc(-c2ccccc2)cc1 (stereo partly drawn)" reported_measurement=-0.194

The value of composite z-score measured for the compound C#CCN(C(/C=C/c1ccccc1)CO)C(C(=O)O)c1ccccc1 (stereo not drawn) turned out to be -0.0849
